Test system: RIOK1
Conditions: concentration: 1 μM, replicates: in singlicate; n = 1;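 further: KINOMEscan kinase panel screen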

{"columns": ["compound", "%Inh"],
 "data": [
  ["Nc1ncnc2c1ncn2-c1cccc2ccccc12", "7%"],
  ["Cc1nnc(-c2ccc3ncn(-c4ccc(S(C)=O)cc4)c3c2)o1 (stereo not drawn)", "6%"],
  ["CCC(=O)c1c(-c2ccccc2)c2cc(Cl)ccc2c(=O)n1Cc1ccc(C(=O)O)cc1", "6%"],
  ["COc1cc(Nc2ccnc3ccc(C(F)(F)F)cc23)cc(OC)c1OC", "11%"],
  ["COc1ccc(-c2coc3ccc(-c4nnc(SCc5cccc(C#N)c5)o4)cc23)cc1", "0%"],
  ["C[C@@H]1CC[C@H](C(=O)NC2CCCCC2)CN1c1cc(-c2ccc3c(N)n[nH]c3c2)nc(N)n1", "96.1%"],
  ["Cl.NS(=O)(=O)c1cccc(Nc2cc(-c3ccc(F)cc3)n[nH]2)c1", "0%"],
  ["COC(=O)c1c(-c2ccccc2)c2cc(C)ccc2c(=O)n1Cc1ccccc1", "3%"],
  ["CCC(=O)c1c(-c2ccccc2)c2cc(Cl)ccc2c(=O)n1Cc1cc(S(C)(=O)=O)n(CCC(C)(C)O)n1", "8%"],
  ["Cc1cccc(-c2cc(-c3c[nH]nc3-c3ccccn3)ccn2)c1", "6%"],
  ["COc1cc(Nc2nccc(N3CCC(NC(=O)C4COc5ccccc5O4)C3)n2)cc(OC)c1OC (stereo not drawn)", "66%"],
  ["COC(=O)c1c(-c2ccccc2)c2cc(Br)ccc2c(=O)n1Cc1ccc(NC(=O)CCC(=O)O)cc1", "0%"],
  ["Cc1ccc(Oc2ccc(Nc3ncnc4cc[nH]c34)cc2C)cn1", "100%"],
  ["Cc1cc(Nc2nc(-c3cccc(C)n3)nc3ccccc23)ccn1", "0%"],
  ["O=C(Nc1n[nH]c2nc(-c3ccccc3)c(Cl)cc12)C1CC1", "7%"],
  ["Nc1ncnc2c1ncn2-c1ccc(Cl)cc1", "51%"],
  ["Cc1ccccc1COc1cc(-n2cnc3cc(Cl)ccc32)sc1C(N)=O", "23%"],
  ["CCS(=O)(=O)c1ccc(OC)c(Nc2ncc(-c3ccc(F)cc3)o2)c1.Cl", "22%"]
]}

###

Test system: PYK2
Construct: gene PTK2B
Settings: concentration: 1 μM, replicates: in singlicate; n = 1
Listed compounds paired with reported %Inh

{"columns": ["compound", "unitInfo", "%Inh"],
 "data": [
  ["Nc1nccc2scc(-c3ccc4c(c3)CCN4C(=O)Cc3ccccc3)c12 [GSK2576924]", "%", 0],
  ["Cc1nc(N(C)[C@H]2CN(C(=O)CC#N)CC[C@H]2C)c2cc[nH]c2n1", "%", 0],
  ["Cc1cc(Nc2nc(-c3cccc(C)n3)nc3ccccc23)ccn1 [GW872411]", "%", 14],
  ["O=C(Nc1ccc2c(c1)OCO2)NC1CCN(c2ccnc(NCc3ccc(F)cc3)n2)CC1 [GSK1379859]", "%", 0],
  ["COc1cc2ncn(-c3cc(OCc4ccncc4Br)c(C(N)=O)s3)c2cc1OC [GW854278]", "%", 7]
]}

###

Tested on: HUNK
Details: concentration: 1 μM, replicates: in singlicate; n = 1
The label is met for %Inh below 30% and not met for %Inh equal to or exceeding 30%.

{"columns": ["molecule", "categoryLabel"],
 "data": [
  ["Nc1ncnc2c1ncn2-c1cccc2ccccc12 [SKF-97184]", "not met"],
  ["FC(F)(F)c1ccc(-c2ncn(CCCN3CCOCC3)c2-c2ccncc2)cc1 [SB-217780]", "met"],
  ["COc1cc2ncn(-c3cc(OCc4ccncc4Br)c(C(N)=O)s3)c2cc1OC [GW854278]", "met"],
  ["Cc1nnc(-c2ccc(C)c(-c3ccc(C(=O)O)cc3)c2)o1 [GW608005]", "met"],
  ["COC(=O)c1c(-c2ccccc2)c2cc(Br)ccc2c(=O)n1Cc1ccc(S(C)(=O)=O)cc1", "met"],
  ["O=C(NCCNc1ccnc(Nc2ccc(F)cc2)n1)Nc1ccc2c(c1)OCO2 [GSK1379882]", "met"],
  ["Cc1ccc(-c2ccc3c(ccc4sc5c(c43)NC[C@@H](C)N=C5N(C)C)n2)cn1", "met"],
  ["O=C(NCc1cccs1)c1cc(C(=O)c2c(Cl)cccc2Cl)c[nH]1 [GW823670]", "not met"],
  ["O=C(Nc1n[nH]c2cc(-c3ccccc3F)ccc12)C1CC1 [SB-733371]", "met"]
]}

###

Listed molecules paired with reported %Inh
Test system: CLK3
Conditions: concentration: 1 μM, replicates: in singlicate; n = 1

{"columns": ["molecule", "%Inh / %"],
 "data": [
  ["Nc1ncnc2c1ncn2-c1cccc2ccccc12", 6],
  ["Cc1ccc(Oc2ccc(Nc3ncnc4cc[nH]c34)cc2C)cn1", 0],
  ["CCS(=O)c1ccc(-c2coc3ccc(-c4nnc(C)o4)cc23)cc1 (stereo not drawn)", 0],
  ["CC(C)(C)c1ccc(C(=O)Nc2cn3cc(-c4ccccc4)ccc3n2)cc1", 9],
  ["O=C(Nc1ccc2c(c1)OCO2)NC1CCN(c2ccnc(NCc3ccc(F)cc3)n2)CC1", 0],
  ["Cc1nn2c(=O)cc(N3CCOCC3)nc2n1Cc1cccc(Cl)c1Cl", 16],
  ["COc1cc2ncn(-c3cc(OCc4ccncc4Br)c(C(N)=O)s3)c2cc1OC", 0],
  ["Cc1cc(Nc2nc(-c3cccc(C)n3)nc3ccccc23)ccn1", 0],
  ["Cl.c1ccc(Cn2cnc3cc(Nc4ncnc5ccccc45)ccc32)cc1", 72]
]}

###

Tested on: CDK8
Details: concentration: 1 μM, replicates: in singlicate; n = 1

{"columns": ["molecule", "unitInfo", "%Inh"],
 "data": [
  ["CN(C)c1cc(-c2ccc3c(N)n[nH]c3c2)nc(N)n1", "%", 0],
  ["Cc1ccc(-c2ccc3c(ccc4sc5c(c43)NC[C@@H](C)N=C5N(C)C)n2)cn1", "%", 0],
  ["COc1cccc(C2=C(N(C)c3ccccc3)C(=O)NC2=O)c1", "%", 6],
  ["Cc1ccccc1COc1cc(-n2cnc3cc(Cl)ccc32)sc1C(N)=O", "%", 14],
  ["Cc1cccc(-c2nc(Nc3ccc4c(cnn4C)c3)c3ccccc3n2)n1", "%", 0],
  ["O=C(Nc1n[nH]c2cc(-c3ccccc3F)ccc12)C1CC1", "%", 0],
  ["CCC(=O)c1c(-c2ccccc2)c2cc(Cl)ccc2c(=O)n1Cc1cc(S(C)(=O)=O)n(CC(N)=O)n1", "%", 0],
  ["COc1cc(Nc2ccnc3ccc(C(F)(F)F)cc23)cc(OC)c1OC", "%", 47],
  ["Nc1ncnc2c1ncn2-c1cccc2ccccc12", "%", 38],
  ["CCn1c(-c2ccoc2)nc2cnccc21", "%", 33],
  ["Cc1nnc(-c2ccc3ncn(-c4ccc(S(C)=O)cc4)c3c2)o1 (stereo not drawn)", "%", 16],
  ["Cc1cc(Nc2nc(-c3cccc(C)n3)nc3ccccc23)ccn1", "%", 0],
  ["CCCNC(=O)Nc1ccc(Oc2ncnc3ccn(C)c23)cc1", "%", 0],
  ["CCC(=O)c1c(-c2ccccc2)c2cc(Cl)ccc2c(=O)n1Cc1cc(S(C)(=O)=O)n(CCC(C)(C)O)n1", "%", 0],
  ["COc1ccc(-c2coc3ccc(-c4nnc(SCc5cccc(C#N)c5)o4)cc23)cc1", "%", 0],
  ["Cc1c(Cn2c(C)nn3c(=O)cc(N4CCO[C@H](C)C4)nc23)cccc1C(F)(F)F", "%", 13],
  ["CCn1c(-c2nonc2N)nc2ccccc21", "%", 0],
  ["CN1C(=O)C(Nc2ccccc2)=C(c2ccccc2)C1=O", "%", 13],
  ["COc1ccc(-c2cc3c(C)nc(N)nc3n([C@H]3CC[C@H](O)CC3)c2=O)cn1", "%", 0],
  ["O=C(Nc1n[nH]c2nc(-c3ccccc3)c(Cl)cc12)C1CC1", "%", 3],
  ["CCC(=O)c1c(-c2ccccc2)c2cc(Cl)ccc2c(=O)n1Cc1cc(C(=O)NC2CC2)n(C)n1", "%", 14]
]}

###

Test system: EPHA6
Details: concentration: 1 μM, replicates: in singlicate; n = 1
Listed compounds paired with reported %Inh

{"columns": ["compound", "%Inh"],
 "data": [
  ["COc1cc2ncn(-c3cc(OCc4ccc(S(C)(=O)=O)cc4)c(C(N)=O)s3)c2cc1OC [GW869979]", "0%"],
  ["CCC(=O)c1c(-c2ccccc2)c2cc(Cl)ccc2c(=O)n1Cc1ccc(C(=O)O)cc1", "6%"],
  ["O=C(Nc1n[nH]c2cc(-c3ccccc3F)ccc12)C1CC1 [SB-733371]", "5%"],
  ["COc1ccc(CNC(=O)NC2CCN(c3ccnc(Nc4ccc(F)cc4)n3)C2)cc1 (centres unmarked) [GSK1379706]", "0%"],
  ["COc1cc2ncn(-c3cc(OCc4ccncc4)c(C(N)=O)s3)c2cc1OC [GSK336313]", "0%"],
  ["COc1cc(Nc2nccc(N3CCC(NC(=O)C(C)c4ccc(Cl)cc4)C3)n2)cc(OC)c1OC (centres unmarked) [GSK1379757]", "18%"],
  ["O=C(Nc1n[nH]c2nc(-c3ccccc3)c(Cl)cc12)C1CC1 [SB-734909]", "13%"],
  ["CCC(=O)c1c(-c2ccccc2)c2cc(Cl)ccc2c(=O)n1Cc1cc(S(C)(=O)=O)n(CC(F)F)n1", "2%"]
]}

# credit: paper PMC5540273
